- experimental_protocol: Phase 1 clinical trial: plasma pharmacokinetics
- Assay type: in vivo, human
- experimental_setup: human, plasma, oral, 120 mg, Cycle 2, Day 1; 120 mg QD; cut-off March 2024; read-out: Tmax,ss [a] median value
measured_quantity: Tmax
Answer with the figure and its unit, nothing else.

State its Tmax: CC1(C)Oc2cc(Cl)ccc2[C@@H]2OCC3(CCN(CCn4ccnc4)CC3)C[C@H]21
5 h

====

- experimental_protocol: Phase 1 clinical trial: plasma pharmacokinetics
- Format: in vivo, human
- experimental_setup: human, plasma, oral, 40 mg, Cycle 1 Day 1; 40 mg, QD; cut-off April 2023; read-out: Cmax (geometric mean)
measured_quantity: Cmax
Answer with the figure and its unit, nothing else.

State its Cmax: CC1(C)Oc2cc(Cl)ccc2[C@@H]2OCC3(CCN(CCn4ccnc4)CC3)C[C@H]21
8 ng/mL

====

- experimental_protocol: Phase 1 clinical trial: plasma pharmacokinetics
- Format: in vivo, human
- experimental_setup: human, plasma, oral, 120 mg, Cycle 1 Day 1; 120 mg, QD; cut-off April 2023; read-out: Cmax (geometric mean)
- Procedure: Summary statistics based on preliminary data were obtained for the pharmacokinetics of Compound 1 in patients receiving once-daily doses ranging from 20 mg to 240 mg (Table 5). The mean plasma concentration-time curves of Compound 1 in the once-daily dose groups ranging from 20 mg to 240 mg are shown in Figure 11. In this study, one cycle consists of 28 days, and Cycle 1 Day 1 refers to Day 1 of the first cycle. […] Accumulation was observed after repeated administration. […]
measured_quantity: Cmax (ng/mL)
Just the number in ng/mL, nothing appended.

State its Cmax: CC1(C)Oc2cc(Cl)ccc2[C@@H]2OCC3(CCN(CCn4ccnc4)CC3)C[C@H]21
40

====

- experimental_protocol: Phase 1 clinical trial: plasma pharmacokinetics
- Assay type: in vivo, human
- experimental_setup: human, plasma, oral, 180 mg, Cycle 1 Day 1; 180 mg, QD; cut-off April 2023; read-out: Tmax (median)
measured_quantity: Tmax (h)
Just the number in h, nothing appended.

State its Tmax: CC1(C)Oc2cc(Cl)ccc2[C@@H]2OCC3(CCN(CCn4ccnc4)CC3)C[C@H]21
6

====

- experimental_protocol: Phase 1 clinical trial: plasma pharmacokinetics
- Type: in vivo, human
- experimental_setup: human, plasma, oral, 240 mg, Cycle 1 Day 1; 240 mg, QD; cut-off April 2023; read-out: AUC0-24 (mean)
measured_quantity: AUC(0-t) (ng·h/mL)
Just the number in ng·h/mL, nothing appended.

State its AUC(0-t): CC1(C)Oc2cc(Cl)ccc2[C@@H]2OCC3(CCN(CCn4ccnc4)CC3)C[C@H]21
1510

====

- experimental_protocol: Phase 1 clinical trial: plasma pharmacokinetics
- Type: in vivo, human
- experimental_setup: human, plasma, oral, 40 mg, Cycle 1 Day 1; 40 mg, QD; cut-off April 2023; read-out: Tmax (mean)
measured_quantity: Tmax
Answer with the figure and its unit, nothing else.

State its Tmax: CC1(C)Oc2cc(Cl)ccc2[C@@H]2OCC3(CCN(CCn4ccnc4)CC3)C[C@H]21
11 h

====

- experimental_protocol: Phase 1 clinical trial: plasma pharmacokinetics
- Format: in vivo, human
- experimental_setup: human, plasma, oral, 20 mg, Cycle 1, Day 1; 20 mg QD; cut-off March 2024; read-out: Cmax
measured_quantity: Cmax (ng/mL)
Just the number in ng/mL, nothing appended.

State its Cmax: CC1(C)Oc2cc(Cl)ccc2[C@@H]2OCC3(CCN(CCn4ccnc4)CC3)C[C@H]21
4.28
